# Measurement Description: qHTS for Antagonists of gsp, the Etiologic Mutation Responsible for Fibrous Dysplasia/McCune-Albright Syndrome: qHTS; note: nearly all actives have a fitted effect of over 65% in size
# Conditions Used: gsp-mutant cells, cAMP HTRF, 30 min; series mostly up to 76.9 µM
The campaign covered roughly 340,000 compounds. About 1,400 (0.41%) were called active. Roughly 4% stayed inconclusive and do not appear here. Calls come from the whole dose curve; cell line not stated here. This is one part of a sample in which actives are shown more often than they occur.
Write down one outcome, taken from active, inactive

Prompt: Status in this test for CCN(CC)CCCN1C(=O)C(=O)/C(=C(/O)c2c(C)nc3ccccn23)C1c1ccc(C)o1 (centres undefined) ?
Response: inactive

Prompt: Would you mind doing CC(NC(=O)CCC(=O)N1CCN(S(=O)(=O)c2ccc(Cl)cc2)CC1)c1ccccc1 (centres undefined) as well?
Response: inactive

Prompt: # iterate: CC(C)=CCc1ccc(O)c(=O)cc1C(C)C
Response: inactive

Prompt: Ok, now C(#CCN1CCOCC1)CCCN1CCOCC1
Response: inactive

Prompt: Would you kindly repeat that for Cc1c(CN2CC[C@@H](N3CCN(c4ccccn4)CC3)[C@H](O)C2)[nH]c2ccc(F)cc12 ?
Response: inactive

Prompt: Another: CC(=O)NCCC(=O)Nc1nc(-c2ccc3c(c2)OCCO3)cs1
Response: inactive

Prompt: # iterate: Cc1ccc(C)c(S(=O)(=O)N(C)c2ccc(OC(=O)C3CCN(C(=O)c4ccc(F)cc4)CC3)cc2)c1
Response: inactive

Prompt: Same lookup for Cc1cccc(NC(=S)N2CCC(C(=O)c3ccc(F)cc3)CC2)c1 , please.
Response: inactive

Prompt: Follow-up item: Cc1ccc(C2=Nc3c(ccc4ccccc34)C(c3ccncc3)=NN2)cc1
Response: active

Prompt: Similarly, O=C(NCc1cccc(C(F)(F)F)c1)c1cccc(S(=O)(=O)N2CCN(Cc3ccccc3)CC2)c1 ?
Response: inactive

Prompt: What about this compound? Cc1ccc(C(=O)OCC(=O)N2CCCCCC2)cc1S(=O)(=O)N1CCOCC1
Response: inactive

Prompt: Please answer likewise for COc1cccc(C(=O)Nc2nc3ccc(S(C)(=O)=O)cc3s2)c1
Response: inactive

Prompt: Now try CC(C)[C@@H](C(=O)OCC(=O)c1ccc2c(c1)NC(=O)CO2)N1C(=O)c2ccccc2C1=O .
Response: inactive

Prompt: Another compound to check: O=C(O)c1ccccc1NC(=O)c1ccccc1-c1ccccc1C(=O)O
Response: inactive

Prompt: Now give it for NC(=O)C1(Nc2ccc([N+](=O)[O-])cc2)CCCC1 too.
Response: inactive

Prompt: How about CCN1C[C@@H]2[C@@H]3C(=O)N(Cc4ccccc4)C(=O)[C@@H]3[C@](C)(C1=O)N2C(=O)c1ccc(C(C)(C)C)cc1 ?
Response: inactive

Prompt: Another compound: O=C(Nc1ncc([N+](=O)[O-])s1)C1COc2ccccc2O1 (centres undefined)
Response: active

Prompt: Same question, COc1cc2c(cc1OC)C(Cc1cc(OC)c(OC)cc1[N+](=O)[O-])=NCC2 this time
Response: inactive

Prompt: What do you have for COc1ccc(-n2cnc3cc(NCc4ccco4)ccc32)cc1 ?
Response: inactive
